- System: VCaP cells
- TEST_DESCRIPTION: VCaP growth inhibition assay (CTG)
- Format: cell-based
- CONDITION_DETAILS: Homo sapiens, 216 h, 30 pM R1881, 9 days
Collected IC50 values appear next to each entry.

Exam item: Give measured IC50 for COC(=O)N1c2ccc3c(nc(Cc4ccccc4)n3[C@@H]3CCC[C@H](OCCN4CCN(c5ccc(C(=O)N[C@H]6CC[C@H](Oc7ccc(C#N)c(Cl)c7)CC6)nn5)CC4)C3)c2CC[C@@H]1C (VCaP cells).
Marked response: 1 to 100 nM

Exam item: Give measured IC50 for COc1cc2c(cn1)N(c1nn(C3CCN(CC4CCN(c5ccc(C(=O)N[C@H]6CC[C@H](Oc7ccc(C#N)c(Cl)c7)CC6)nn5)CC4)CC3)c3c1CN(C(C)=O)CC3)CCC2 (VCaP cells).
Marked response: 0.1 to 1 nM

Exam item: Give measured IC50 for CC(=O)N1CCc2c(c(N3CCCc4cc(-c5cnn(C)c5)c(C(F)F)cc43)nn2C2CCN(CCC#Cc3ccc(C(=O)N[C@H]4CC[C@H](Oc5ccc(C#N)c(Cl)c5)CC4)nn3)CC2)C1 (VCaP cells).
Marked response: 0.1 to 1 nM

Exam item: Give measured IC50 for C[C@@H]1CC(=O)Nc2cc(C3CCN(CC4CCN(c5ccc(C(=O)N[C@H]6CC[C@H](Oc7ccc(C#N)c(Cl)c7)CC6)nn5)CC4)CC3)cc(-c3ccc4c(cnn4C)c3)c2N1 (VCaP cells).
Marked response: ≤ 0.1 nM

Exam item: Give measured IC50 for CC(=O)N1CCc2c(c(-c3cccc4cc(-c5cnn(CCOC6CC7(C6)CN(c6ccc(C(=O)N[C@H]8CC[C@H](Oc9ccc(C#N)c(Cl)c9)CC8)nn6)C7)c5)ncc34)nn2C)C1 (VCaP cells).
Marked response: 0.1 to 1 nM

---

Collected IC50 values appear next to each entry.
- System: VCaP cells
- TEST_DESCRIPTION: VCaP growth inhibition assay (CTG)
- Format: cell-based
- CONDITION_DETAILS: Homo sapiens, 216 h, 30 pM R1881, 9 days

Exam item: Look up IC50 of CC(=O)N1CCc2c(c(N3CCCc4cc(-c5ccc(CCC6CCN(c7ccc(C(=O)N[C@H]8CC[C@H](Oc9ccc(C#N)c(Cl)c9)CC8)cn7)CC6)cc5)c(C(F)F)cc43)nn2C2CCOCC2)C1 and report it.
Marked response: ≤ 0.1 nM

Exam item: Look up IC50 of CC(=O)N1CCc2c(c(N3CCCc4cc(-c5cnn(C)c5)c(C(F)F)cc43)nn2[C@H]2CC[C@H](OC3CCN(c4ccc(C(=O)N[C@H]5CC[C@H](Oc6ccc(C#N)c(Cl)c6)CC5)nn4)CC3)CC2)C1 and report it.
Marked response: ≤ 0.1 nM

---

- System: VCaP cells
- TEST_DESCRIPTION: VCaP growth inhibition assay (CTG)
- Format: cell-based
- CONDITION_DETAILS: Homo sapiens, 216 h, 30 pM R1881, 9 days
OUTCOME_MEASURE: IC50

# count of solved cases: 4
{"COMPOUND": "Cc1cc2c(N3CCN(C)c4cc(-c5cnn(C)c5)c(C#N)cc43)cc(OCCC3CCN(c4ccc(C(=O)N[C@H]5CC[C@H](Oc6ccc(C#N)c(Cl)c6)CC5)nn4)CC3)cc2n(C)c1=O", "RESULT": "0.1 to 1 nM"}
{"COMPOUND": "CC(=O)N1CCc2c(c(N3CCCc4cc(-c5cnn(C)c5)c(C(F)F)cc43)nn2CC2CC3(CCN(c4ccc(C(=O)N[C@H]5CC[C@H](Oc6ccc(C#N)c(Cl)c6)CC5)nn4)CC3)C2)C1", "RESULT": "0.1 to 1 nM"}
{"COMPOUND": "CC(=O)N1CCc2c(c(N3CCCc4cc(-c5cnn(C)c5)c(C(F)F)cc43)nn2C2CCN([C@@H]3CCCN(c4ccc(C(=O)N[C@H]5CC[C@H](Oc6ccc(C#N)c(Cl)c6)CC5)nn4)C3)CC2)C1", "RESULT": "1 to 100 nM"}
{"COMPOUND": "CC(=O)N1CCc2c(c(N3CCCc4cc(-c5cnn(C)c5)c(C(F)F)cc43)nn2C2CCN(CC3C4CC3CN(c3ccc(C(=O)N[C@H]5CC[C@H](Oc6ccc(C#N)c(Cl)c6)CC5)nn3)C4)CC2)C1 (some centres unmarked)", "RESULT": "0.1 to 1 nM"}

Exam item: Look up IC50 of CC(=O)N1CCc2c(c(N3CCCc4cc(-c5cnn(C)c5)c(C(F)F)cc43)nn2C2CCN(C3CC4(CCC(Oc5ccc(C(=O)N[C@H]6CC[C@H](Oc7ccc(C#N)c(Cl)c7)CC6)nn5)CC4)C3)CC2)C1 (some centres unmarked) and report it.
Marked response: ≤ 0.1 nM

Hello, the source for this data is patent US20250136578A1, in case you need it.
